Target chain: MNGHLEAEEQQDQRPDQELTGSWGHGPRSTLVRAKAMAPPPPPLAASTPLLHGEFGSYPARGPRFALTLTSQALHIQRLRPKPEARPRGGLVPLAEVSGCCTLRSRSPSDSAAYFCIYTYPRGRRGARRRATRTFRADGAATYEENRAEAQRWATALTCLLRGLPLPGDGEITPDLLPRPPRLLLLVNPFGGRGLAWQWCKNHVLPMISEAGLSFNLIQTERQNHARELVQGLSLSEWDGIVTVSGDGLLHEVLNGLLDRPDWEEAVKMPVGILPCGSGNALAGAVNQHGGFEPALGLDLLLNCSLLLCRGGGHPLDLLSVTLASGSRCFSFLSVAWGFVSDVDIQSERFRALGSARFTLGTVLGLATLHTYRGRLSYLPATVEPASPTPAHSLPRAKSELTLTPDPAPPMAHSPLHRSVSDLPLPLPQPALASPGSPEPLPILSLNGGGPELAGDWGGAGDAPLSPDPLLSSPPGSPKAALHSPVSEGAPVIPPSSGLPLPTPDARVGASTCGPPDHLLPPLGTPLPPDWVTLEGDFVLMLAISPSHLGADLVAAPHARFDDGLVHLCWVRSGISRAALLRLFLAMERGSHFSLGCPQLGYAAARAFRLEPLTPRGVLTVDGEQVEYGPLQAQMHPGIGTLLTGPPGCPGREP
Reported IC50 values for a set of compounds
Field format: number, assumed µM, no unit text.

These solved cases illustrate the format of a correct answer.
N[C@@H](CO)[C@H](O)/C=C/CCCCCCCCCCc1ccc(I)cc1
4.38
N[C@@H](CO)[C@H](O)/C=C/CCCCCCCCCc1ccc(I)cc1
16.6

QUERY: Query: IC50; subject: N[C@@H](CO)[C@H](O)/C=C/CCCCCCCCCCCCCc1ccc(I)cc1
RESULT: 29.2
